# Target entity: SHP2-C SH2;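 further: peptide library displayed on the E. coli surface as eCPX fusions, selected cells deep-sequenced, score is each peptide's frequency after selection divided by its frequency in the input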
# Assay name: SH2 binding enrichment of the phosphorylated peptide, bacterial display (enrichment ratio); higher = better substrate or ligand; peptides without Tyr show the background
Binary call on SH2 binding enrichment: Y from 0.9 upward, N beneath that.

Solved entries:
*Q* Would you say RSGNCYLDIRP [FBN1_Y1535] shows SH2 binding enrichment at minimum 0.9?
*A* N

*Q* In plain terms: is recorded SH2 binding enrichment at least 0.9 for SSPQPYLVPFL [TAF4_Y652] ?
*A* Y

*Q* // inclusive: SH2 binding enrichment at least 0.9? input: TNFPLYLRSLE [MTM1_Y71_R69P_YF]
*A* Y

*Q* Exam item: decide whether the reported SH2 binding enrichment for ESDYTYSSSYE [SRPK2_Y427] is at least 0.9.
*A* N

*Q* Record RLPNGYGLAFR [DLK1_Y262_S260N_YF] ; criterion: SH2 binding enrichment no lower than 0.9. Met?
*A* Y

Further cases:
*Q* Assess whether reported SH2 binding enrichment for CRIELYRIVES [IGFBP1_Y181_V183I] sits at 0.9 or higher.
*A* N

*Q* Does the reported SH2 binding enrichment for CPYNLYAEQFS [HGD_Y40_L44F] fall at or above the 0.9 mark?
*A* N
